- PROCEDURE SUMMARY: solvent given as SMILES
- CONDITION DETAILS: in CC#N
Exercise: for every item that follows, state its recorded emission maximum.
One number for each entry, in nm.

c1ccc(N(c2ccccc2)c2ccc3c4cccc5c(N(c6ccccc6)c6ccccc6)ccc(c6cccc2c63)c54)cc1 = 548
N#Cc1cc2ccccc2oc1=O = 407
Cc1cc(-c2ccccc2)nc2c1ccc1nc(-c3ccccc3)cn12 = 458
CCc1c(C)c2n(c1C)[B-](F)(F)[N+]1=C(c3ccc[nH]3)c3ccccc3C1=C2C = 623
O=c1oc2ccccc2cc1-c1ccc(-c2cc3ccccc3oc2=O)cc1 = 426

# batch: return emission maximum for each of the 3 molecules below
1. C/C(=N\Nc1ccc(C#N)cc1)c1ccccn1
2. COc1cc(/C=C/c2ccccn2)c(OC)cc1C=O
3. CN(C)CCCN1c2ccccc2Sc2ccccc21

Result:
1. 463
2. 458
3. 444

Provide emission maximum values for the following items, in order.
1. COc1ccc2c(c1)C(=O)c1ccccc1-2
2. CCN(CC)c1ccc2c(-c3ccc(S(=O)(=O)[O-])cc3S(=O)(=O)[O-])c3ccc(=[N+](CC)CC)cc-3oc2c1
3. CCCCN(CCCC)c1ccc(/C=C/c2ccc3nc(-c4ccccc4)c(/C=C/c4ccc(N(C)C)cc4)nc3c2)cc1

Result:
1. 568
2. 573
3. 650
